Tested on: 883617-216-R-J1-PDC tumor spheroids, viability;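 note: spheroids exposed to agents for 7 days before the viability read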
Test: Anticancer human tumor 883617-216-R-J1-PDC patient-derived bladder carcinoma cell line growth inhibition [PI3K]; active = viability on the fitted dose curve at most 10% of control; inactive = the rest
Conditions: second compound 0.1 µM; first compound 3 µM; spheroids with HUVEC and MSC
Just give me one of these, please: active, inactive

### Prompt Please share the test call associated with Cn1cnc2c(F)c(Nc3ccc(Br)cc3Cl)c(C(=O)NOCCO)cc21 + Cc1nc(NC(=O)N2CCCC2C(N)=O)sc1-c1ccnc(C(C)(C)C(F)(F)F)c1 .
### Response inactive

### Prompt Same again, this time with Cn1cnc2c(F)c(Nc3ccc(Br)cc3Cl)c(C(=O)NOCCO)cc21 + COc1c(OCCCN2CCOCC2)ccc2c3n(c(=NC(=O)c4cnc(N)nc4)nc12)CCN3
### Response active

### Prompt Follow-up entry: Cn1cnc2c(F)c(Nc3ccc(Br)cc3Cl)c(C(=O)NOCCO)cc21 + CC(Nc1ncnc2nc[nH]c12)c1cc2cccc(Cl)c2c(=O)n1-c1ccccc1
### Response inactive

### Prompt # repeat for Cn1cnc2c(F)c(Nc3ccc(Br)cc3Cl)c(C(=O)NOCCO)cc21 + CC(Nc1ccc2c(c1)OCCn1cc(N3C(=O)OCC3C(F)F)nc1-2)C(N)=O
### Response inactive
